target: T1, Human Clec9A (human, UniProt Q6UXN8 1-241); test: flow, Jurkat, 100 nM Ab
T1 construct: also called hClec9A
T1 sequence (Q6UXN8 whole entry): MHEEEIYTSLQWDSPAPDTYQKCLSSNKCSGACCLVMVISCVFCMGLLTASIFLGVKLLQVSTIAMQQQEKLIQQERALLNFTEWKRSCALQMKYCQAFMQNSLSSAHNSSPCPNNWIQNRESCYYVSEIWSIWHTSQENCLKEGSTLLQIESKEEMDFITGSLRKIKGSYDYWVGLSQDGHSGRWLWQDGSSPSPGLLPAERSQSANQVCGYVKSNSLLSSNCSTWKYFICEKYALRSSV
Listed next: entries and their corresponding MFI normalized to WT.
Form: value (number only, do not type unit).

Some binders with known MFI normalized to WT results, for comparison:
KW1.3.12 (antibody, human IgG1, V domains shown) VH: EVQLVESGGGLVQPGGSLRLSCAASGFTFSSYAMSWVRQAPGKGLEWVSTISGSGGSTYYADSVKGRFTISRDNSRNTLYLQMNSLRAEDTAVYYCARGGLIPSGFDYWGQGTLVTVSS VL: DIQMTQSPSSLSASVGDRVTITCRASQSISSYLNWYQQKPGKAPKLLIYAASSLLSGVPSRFSGSGSGTDFTLTISSLQPEDFATYYCQQTYSAPLTFGQGTKVEIK | 1.11
KM12.2.3 (antibody, human IgG1, V domains shown) VH: EVQLVESGGGLVQPGGSLRLSCAASGFTFSSYAMSWIRQAPGKGLEWVSAISGSGGSIYYADSVKGRFTISRDNSKNTLYLQMNSLRAEDTAVYYCARGYSDSYFYGPYYTFDYWGQGTLVTVSS VL: DIQMTQSPSSLSASVGDRVTITCRASQGISSYLNWYQQKPGKAPKLLIYAASSLQSGVSSRFSGSGSGTDFTLTISSLQPEDFATYYCQQSYNTPLTFGQGTKVEIK | 1.42
KW9.3.3 (antibody, V domains shown) VH: EVQLVESGGGLVQPGGSLRLSCAASGFTFSSYAMSWVRQAPGKGLEWVSAISGSGGRTYYADSVKGRFTISRDNSKNTLYLQMNSLRAEDTAMYYCARGPGYMYLYGDSFFEYWGQGTLVTVSS VL: DIQMAQSPSSLSASVGDRVTITCRASQGISSYLNWYQQKPGKAPKLLIYAASSLQSGVPSRFSGSGYGTDFTLTISSLQPEDFATYYCQQSYSTPLTFGQGTKVEIK | 0.94

Exercise: # query: MFI normalized to WT of entry KW1.2.1 (antibody, V domains shown) VH: EVQLVESGGGLVQPGGSLRLSCAASGSTFSSYAMSWVRQAPGKGLEWVSTISGSGGSTYYADSVKGRFTISRDNSRNTLYLQMNSLRAEDTAVYYCARGGLIPSGFDYWGQGTLVTVSS VL: DIQMTQSPSSPSASVGDRVTITCRASQSISSYLNWYQQKPGKAPKLLIYAASSLLSGVPSRFSGSGSGTDFTLTISSLQPEDFATYYCQQTYSTPLTFGQGTKVEIK
Solution: 1.24
